# System Tested: T1, NHERF3_1, Q5T2W1
# T1 sequence (Q5T2W1 4-100, limits assumed, looked up): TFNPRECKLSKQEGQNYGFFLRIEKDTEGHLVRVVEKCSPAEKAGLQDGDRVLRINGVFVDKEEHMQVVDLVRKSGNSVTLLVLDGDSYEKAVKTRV
# Assay Comment: holdup assay
# Set-up: key: below the threshold = too weak to quantify, mostly under pKd 3.1 to 4
# Measurement Parameters: plain residues with an end cap or a label only (N-terminal biotin on a linker: ado-ado)
Readout: pKd
API note: the answer field is a bare number with no unit suffix.

KKTPVSRSHL [SLC22A3, O75751]	4.39
EFKQTSSFLV [JAM1, Q9Y624]	4.16
WAKEKQHTRL [SLC17A1, Q14916]	4.73

# binder IGHEDLETAV [DGKI, O75912] ; its pKd = 4.75

# binder KSRPENGTVC [TMEM178B, H3BS89] ; its pKd = 3.62

# binder PLPPEEESWV [GAS2L2, Q8NHY3] ; its pKd = 4.86

# binder KEKASTETEC [TRPM1, Q7Z4N2] ; its pKd = 3.64

From: paper PMC9482650
